Origin of measurements: the supplement of paper PMC11208160

Measurement Notes: recombinant barcode read abundance after kanamycin selection (control-corrected) (log10(CPM+1)); higher = more efficient recombination; sequences stand for … in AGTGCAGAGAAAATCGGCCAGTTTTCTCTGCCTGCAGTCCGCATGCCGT…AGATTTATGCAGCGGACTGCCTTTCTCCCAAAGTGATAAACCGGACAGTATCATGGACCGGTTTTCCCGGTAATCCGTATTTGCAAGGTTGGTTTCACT; site = the 11-nt target
Each entry below carries its reported recombinant barcode read abundance (log10).
Form field (numeric): enter value without unit.

Look over these answered cases.
In [3]: df
Out[3]:
                         construct_sequence  data_value
0  TCGGAGTCTTGGGTTCTAACCTGTTGCTT (site TCGGAGTCTAA)        1.87
1  GTAAGCACTTGGGTTCTAACCTGTTGCTT (site GTAAGAACTAA)      0.0561
2  AGGAGCCCTTGGGTTCTAACCTGTTGCTA (site AGGAGCCCTGA)      0.0798
3  AGGCTGGCTTGGGTTCTAACCTGTTGCCT (site AGGCTGCCTAG)      0.0205

Query: Consider the sequence ACCGTTCCTTGGGTTCTAACCTGTTGCCT (site ACCGTTCCTAG) and give its measured recombinant barcode read abundance (log10).
Reply: 0.78

Query: How about CAGAGGCCTTGGGTTCTAACCTGTTGCCT (site CAGAGGCCTAG) ?
Reply: 0.224

Query: How about TTGCGTGCTTGGGTTCTAACCTGTTGCTT (site TTGCGAGCTAT) ?
Reply: 0.27

Query: How about GACACGCCTTGGGTTCTAACCTGTTGCAT (site GACACGCCTAT) ?
Reply: 0.189

Query: How about TCCCGGACTTGGGTTCTAACCTGTTGCCT (site TCGCGGACTAG) ?
Reply: 0

Query: How about CAAGCACCTTGGGTTCTAACCTGTTGCTT (site CAAACACCTAA) ?
Reply: 0.121

Query: How about CTAAGGACTTGGGTTCTAACCTGTTGCTA (site CTAAGGACTTA) ?
Reply: 1.11

====

Each entry below carries its reported recombinant UMI read abundance (log10).
Measurement Notes: recombinant UMI read abundance after kanamycin selection (control-corrected) (log10(CPM+1)); higher = more efficient recombination; extreme values may be limits of the assay; sequences stand for … in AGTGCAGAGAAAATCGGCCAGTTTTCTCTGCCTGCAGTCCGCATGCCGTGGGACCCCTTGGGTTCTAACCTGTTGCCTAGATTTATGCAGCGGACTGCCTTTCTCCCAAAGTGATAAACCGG…AGGTTGGTTTCACT; site = the 11-nt donor
Form field (numeric): enter value without unit.

Look over these answered cases.
>>> print(df.to_string())
                         construct_sequence  data_value
0  TACTTTCCATGGACCGGTTTTCCCGGTAATCCGTATTTGCG (site TACTTTCCTCG)        1.29
1  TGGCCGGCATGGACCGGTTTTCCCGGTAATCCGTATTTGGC (site TGACCGGCTGC)           0
2  ACCAAGACATGGACCGGTTTTCCCGGTAATCCGTATTTGGG (site ACCAAGACTCC)      0.0181

--- query ---
Query: Consider the sequence GCTTGCCCATGGACCGGTTTTCCCGGTAATCCGTATTTGGT (site GCTTGCCCTAC) and give its measured recombinant UMI read abundance (log10).
Reply: 0.017

====

Each entry below carries its reported recombinant barcode read abundance (log10).
Measurement Notes: recombinant barcode read abundance after kanamycin selection (control-corrected) (log10(CPM+1)); higher = more efficient recombination; sequences stand for … in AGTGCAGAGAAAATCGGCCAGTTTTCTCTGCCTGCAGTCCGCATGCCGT…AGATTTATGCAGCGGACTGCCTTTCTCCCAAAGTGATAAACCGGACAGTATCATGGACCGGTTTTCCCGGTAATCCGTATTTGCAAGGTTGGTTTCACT; site = the 11-nt target

                         construct_sequence  data_value
0  TAATCGCCTTGGGTTCTAACCTGTTGCCT (site TAATCGACTAG)       0.122
1  ATGGTGGCTTGGGTTCTAACCTGTTGCCT (site ATGGTGCCTAG)       0.288
2  GGAATCCCTTGGGTTCTAACCTGTTGCCT (site GGAATGCCTAG)       0.463
3  GTATGGACTTGGGTTCTAACCTGTTGCAA (site GTATGGACTTT)        1.32
4  ACTCCGTCTTGGGTTCTAACCTGTTGCTA (site ACTCCGTCTTA)        1.11
5  ACGTTACCTTGGGTTCTAACCTGTTGCCT (site ACGATACCTAG)       0.331

Query: Consider the sequence CGCCATCCTTGGGTTCTAACCTGTTGCAT (site CGCCATCCTAT) and give its measured recombinant barcode read abundance (log10).
Reply: 0.134

Query: How about CACTGGTCTTGGGTTCTAACCTGTTGCCT (site CACTGGTCTAG) ?
Reply: 1.12

====

Measurement Notes: recombinant barcode read abundance after kanamycin selection (control-corrected) (log10(CPM+1)); higher = more efficient recombination; sequences stand for … in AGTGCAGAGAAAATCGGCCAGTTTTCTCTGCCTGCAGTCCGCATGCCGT…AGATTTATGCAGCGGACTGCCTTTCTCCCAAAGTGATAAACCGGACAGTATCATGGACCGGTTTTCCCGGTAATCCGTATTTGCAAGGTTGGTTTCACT; site = the 11-nt target
Observation Type: recombinant barcode read abundance (log10)
Form field (numeric): enter value without unit.

In [3]: df
Out[3]:
                         construct_sequence  data_value
0  AATAACCCTTGGGTTCTAACCTGTTGCCT (site ACTAACCCTAG)       0.145
1  GATCCTACTTGGGTTCTAACCTGTTGCCA (site GATGCTACTTG)      0.0449

Query: Consider the sequence GTATGATCTTGGGTTCTAACCTGTTGCCT (site GTATGACCTAG) and give its measured recombinant barcode read abundance (log10).
Reply: 0.0755

====

Each entry below carries its reported recombinant UMI read abundance (log10).
Measurement Notes: recombinant UMI read abundance after kanamycin selection (control-corrected) (log10(CPM+1)); higher = more efficient recombination; extreme values may be limits of the assay; sequences stand for … in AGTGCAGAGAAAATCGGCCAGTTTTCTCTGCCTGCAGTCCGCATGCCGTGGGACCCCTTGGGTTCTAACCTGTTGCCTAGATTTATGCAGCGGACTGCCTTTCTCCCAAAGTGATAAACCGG…AGGTTGGTTTCACT; site = the 11-nt donor
Form field (numeric): enter value without unit.

Look over these answered cases.
                         construct_sequence                        observation_type  data_value
0  GTATGCACATGGACCGGTTTTCCCGGTAATCCGTATTTGCA (site GTATGCACTTT)  recombinant UMI read abundance (log10)       0.427
1  TCAGAGACATGGACCGGTTTTCCCGGTAATCCGTATTTGGG (site TCAGAGACTCC)  recombinant UMI read abundance (log10)           0
2  AGCCTATCATGGACCGGTTTTCCCGGTAATCCGTATTTGAC (site AGCCTTTCTGT)  recombinant UMI read abundance (log10)           0
3  TAGCGTTCATGGACCGGTTTTCCCGGTAATCCGTATTTGGT (site TAGCCTTCTAC)  recombinant UMI read abundance (log10)     0.00546
4  GCAGGTACATGGACCGGTTTTCCCGGTAATCCGTATTTGAC (site GTAGGTACTGT)  recombinant UMI read abundance (log10)         2.1
5  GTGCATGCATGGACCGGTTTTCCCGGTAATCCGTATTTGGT (site TTGCATGCTAC)  recombinant UMI read abundance (log10)       0.412
6  GCGAAGCCATGGACCGGTTTTCCCGGTAATCCGTATTTGTG (site GCGAAGCCTCG)  recombinant UMI read abundance (log10)      0.0255
7  CGGAAGCCATGGACCGGTTTTCCCGGTAATCCGTATTTGAT (site CGGAATCCTAA)  recombinant UMI read abundance (log10)           0
8  GCAACCTCATGGACCGGTTTTCCCGGTAATCCGTATTTGCT (site GCAACCTCTAG)  recombinant UMI read abundance (log10)        1.91
9  TCCTACCCATGGACCGGTTTTCCCGGTAATCCGTATTTGAG (site TCCTACCCTCT)  recombinant UMI read abundance (log10)      0.0177

Query: Consider the sequence ATGGTATCATGGACCGGTTTTCCCGGTAATCCGTATTTGCA (site ATGGTATCTTG) and give its measured recombinant UMI read abundance (log10).
Reply: 3.07

Query: How about TACATGTCATGGACCGGTTTTCCCGGTAATCCGTATTTGTC (site TACATGTCTGA) ?
Reply: 1.56

Query: How about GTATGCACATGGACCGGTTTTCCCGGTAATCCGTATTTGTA (site GTATGCACTAA) ?
Reply: 0.126

Query: How about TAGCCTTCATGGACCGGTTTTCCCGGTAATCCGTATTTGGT (site TATCCTTCTAC) ?
Reply: 0.379

Query: How about TGTCCGGCATGGACCGGTTTTCCCGGTAATCCGTATTTGGC (site TGACCGGCTGC) ?
Reply: 0

Query: How about GCTTGCCCATGGACCGGTTTTCCCGGTAATCCGTATTTGGT (site GCTTGCCCTAT) ?
Reply: 0

Query: How about GGATATACATGGACCGGTTTTCCCGGTAATCCGTATTTGAT (site GGATATACTAT) ?
Reply: 2.03

Query: How about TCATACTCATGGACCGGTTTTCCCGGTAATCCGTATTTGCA (site TCATAATCTTG) ?
Reply: 0.464

Query: How about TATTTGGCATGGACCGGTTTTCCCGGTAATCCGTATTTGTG (site TAATTGGCTCA) ?
Reply: 0.0238
